- system.under.test: CaM (Bos taurus)
- Construct: made in house; host or cells: E. coli BL21 (DE3)
- assay.info: Competition pull-down with native ligand TRPV1-Ct15
- Type: binding, bovine
- test.parameters: H14 library; competitor peptide 200 µM; read-out: Surface mapping KD (apparent), competition

{"columns": ["compound.smiles", "Kd / µM"],
 "data": [
  ["C[C@@H](CC(=O)N[C@H]1CCCC[C@@H]1C(N)=O)NC(=O)[C@H]1CCCC[C@@H]1NC(=O)[C@H]1CCCC[C@@H]1NC(=O)C[C@H](CCC(N)=O)NC(=O)[C@H]1CCCC[C@@H]1N", 211],
  ["NC(=O)CC[C@@H](CC(=O)N[C@H]1CCCC[C@@H]1C(=O)N[C@H]1CCCC[C@@H]1C(=O)N[C@@H](CC(N)=O)CC(=O)N[C@H]1CCCC[C@@H]1C(N)=O)NC(=O)[C@H]1CCCC[C@@H]1N", 304],
  ["N=C(N)NCCC[C@@H](CC(=O)N[C@H]1CCCC[C@@H]1C(N)=O)NC(=O)[C@H]1CCCC[C@@H]1NC(=O)[C@H]1CCCC[C@@H]1NC(=O)C[C@H](Cc1ccccc1)NC(=O)[C@H]1CCCC[C@@H]1N", 290],
  ["C[C@@H](CC(=O)N[C@H]1CCCC[C@@H]1C(N)=O)NC(=O)[C@H]1CCCC[C@@H]1NC(=O)[C@H]1CCCC[C@@H]1NC(=O)C[C@@H](NC(=O)[C@H]1CCCC[C@@H]1N)[C@@H](C)O", 398],
  ["NC(=O)C[C@@H](CC(=O)N[C@H]1CCCC[C@@H]1C(N)=O)NC(=O)[C@H]1CCCC[C@@H]1NC(=O)[C@H]1CCCC[C@@H]1NC(=O)C[C@H](Cc1c[nH]c2ccccc12)NC(=O)[C@H]1CCCC[C@@H]1N", 294],
  ["CC[C@H](C)[C@@H](CC(=O)N[C@H]1CCCC[C@@H]1C(N)=O)NC(=O)[C@H]1CCCC[C@@H]1NC(=O)[C@H]1CCCC[C@@H]1NC(=O)C[C@H](CCSC)NC(=O)[C@H]1CCCC[C@@H]1N", 435],
  ["NC(=O)CC[C@@H](CC(=O)N[C@H]1CCCC[C@@H]1C(=O)N[C@H]1CCCC[C@@H]1C(=O)N[C@H](CC(=O)N[C@H]1CCCC[C@@H]1C(N)=O)Cc1ccccc1)NC(=O)[C@H]1CCCC[C@@H]1N", 211],
  ["NC(=O)C[C@@H](CC(=O)N[C@H]1CCCC[C@@H]1C(=O)N[C@H]1CCCC[C@@H]1C(=O)N[C@H](CC(=O)N[C@H]1CCCC[C@@H]1C(N)=O)Cc1ccc(O)cc1)NC(=O)[C@H]1CCCC[C@@H]1N", 270],
  ["C[C@@H](O)[C@@H](CC(=O)N[C@H]1CCCC[C@@H]1C(N)=O)NC(=O)[C@H]1CCCC[C@@H]1NC(=O)[C@H]1CCCC[C@@H]1NC(=O)C[C@@H](NC(=O)[C@H]1CCCC[C@@H]1N)[C@@H](C)O", 416],
  ["CSCC[C@@H](CC(=O)N[C@H]1CCCC[C@@H]1C(N)=O)NC(=O)[C@H]1CCCC[C@@H]1NC(=O)[C@H]1CCCC[C@@H]1NC(=O)C[C@H](CC(C)C)NC(=O)[C@H]1CCCC[C@@H]1N", 468],
  ["CC(C)C[C@@H](CC(=O)N[C@H]1CCCC[C@@H]1C(N)=O)NC(=O)[C@H]1CCCC[C@@H]1NC(=O)[C@H]1CCCC[C@@H]1NC(=O)C[C@H](CCC(N)=O)NC(=O)[C@H]1CCCC[C@@H]1N", 241],
  ["NC(=O)CC[C@@H](CC(=O)N[C@H]1CCCC[C@@H]1C(=O)N[C@H]1CCCC[C@@H]1C(=O)N[C@@H](CO)CC(=O)N[C@H]1CCCC[C@@H]1C(N)=O)NC(=O)[C@H]1CCCC[C@@H]1N", 336],
  ["CC(C)[C@@H](CC(=O)N[C@H]1CCCC[C@@H]1C(=O)N[C@H]1CCCC[C@@H]1C(=O)N[C@H](CC(=O)N[C@H]1CCCC[C@@H]1C(N)=O)Cc1ccccc1)NC(=O)[C@H]1CCCC[C@@H]1N", 239],
  ["CC(C)C[C@@H](CC(=O)N[C@H]1CCCC[C@@H]1C(=O)N[C@H]1CCCC[C@@H]1C(=O)N[C@H](CC(=O)N[C@H]1CCCC[C@@H]1C(N)=O)Cc1c[nH]c2ccccc12)NC(=O)[C@H]1CCCC[C@@H]1N", 88]
]}
